Target: T1, human FcRn/b2M (human, UniProt P61769 21-119, biotinylated)
T1 construct: bought recombinant biotinylated protein (ACRO FCM-H82W4 or Immunitrack ITF01); also called hFcRn; hFcRn/hb2M
T1 sequence (chain, as listed by the source limits assumed, chain 1 of 2): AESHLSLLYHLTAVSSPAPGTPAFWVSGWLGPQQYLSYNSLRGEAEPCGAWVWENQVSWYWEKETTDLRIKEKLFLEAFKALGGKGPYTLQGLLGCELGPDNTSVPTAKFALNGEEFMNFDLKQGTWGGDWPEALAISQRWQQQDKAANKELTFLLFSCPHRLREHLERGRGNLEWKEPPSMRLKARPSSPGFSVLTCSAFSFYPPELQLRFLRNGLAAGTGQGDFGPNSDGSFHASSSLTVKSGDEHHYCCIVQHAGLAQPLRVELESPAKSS
T1 sequence (P61769 21-119 limits assumed, chain 2 of 2): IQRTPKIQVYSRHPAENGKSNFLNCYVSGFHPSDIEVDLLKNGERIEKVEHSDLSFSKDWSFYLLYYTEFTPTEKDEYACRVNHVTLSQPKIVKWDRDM
Assay: SPR pH 6.0

BINDER	ENDPOINT UNIT	koff
T026301078 (VHH, name in Kabat numbering, tagless) VHH: EVQLVESGGGVVQPGGSLRLSCAASGFTFSEYDMYWVRQAPGKGLEWVSAISQGGGSTDYADSVKGRFTISRDNSKNTLYLQMNSLRPEDTALYYCAADTLYTDLTWYSYWGQGTLVTVSS	s⁻¹	0.0095
T026301117 (VHH, name in Kabat numbering, tagless) VHH: EVQLVESGGGVVQPGGSLRLSCAASGFTFSEYAMYWVRQAPGKGLEWVSAISSGGGSTDYADSVKGRFTISRDNSKNTLYLQMNSLRPEDTALYYCAADTLYTSLTSYSYWGQGTLVTVSS	s⁻¹	0.0067
T026301088 (VHH, name in Kabat numbering, tagless) VHH: EVQLVESGGGVVQPGGSLRLSCAASGFTFSSYDMYWVRQAPGKGLEWVSAISSGGGSTDYADSVKGRFTISRDNSKNTLYLQMNSLRPEDTALYYCAADTLYTSLTKYSYWGQGTLVTVSS	s⁻¹	0.0093
T026301085 (VHH, name in Kabat numbering, tagless) VHH: EVQLVESGGGVVQPGGSLRLSCAASGFTFSSYAMYWVRQAPGKGLEWVSAISQGGGSTDYADSVKGRFTISRDNSKNTLYLQMNSLRPEDTALYYCAADTLYTDLTWYSYWGQGTLVTVSS	s⁻¹	0.0066
T026301063 (VHH, name in Kabat numbering, tagless) VHH: EVQLVESGGGVVQPGGSLRLSCAASTFTFSSYAMYWVRQAPGKGLEWVSAISQGGGSTDYADSVKGRFTISRDNSKNTLYLQMNSLRPEDTALYYCAADTLYTSLTWYSYWGQGTLVTVSS	s⁻¹	0.005
T026301123 (VHH, name in Kabat numbering, tagless) VHH: EVQLVESGGGVVQPGGSLRLSCAASTFTFSSYDMYWVRQAPGKGLEWVSAISSGGGSTDYADSVKGRFTISRDNSKNTLYLQMNSLRPEDTALYYCAADTLYTSLTWYSYWGQGTLVTVSS	s⁻¹	0.0054
T026301107 (VHH, name in Kabat numbering, tagless) VHH: EVQLVESGGGVVQPGGSLRLSCAASTFTFSSYDMYWVRQAPGKGLEWVSAISQGGGSTDYADSVKGRFTISRDNSKNTLYLQMNSLRPEDTALYYCAADTLYTSLTSYSYWGQGTLVTVSS	s⁻¹	0.0045
T026301091 (VHH, name in Kabat numbering, tagless) VHH: EVQLVESGGGVVQPGGSLRLSCAASGFTFSEYDMYWVRQAPGKGLEWVSAISSGGGSTDYADSVKGRFTISRDNSKNTLYLQMNSLRPEDTALYYCAADTLYTSLTSYSYWGQGTLVTVSS	s⁻¹	0.0062
